Below, each entry is listed with its recorded activity at 10 µM.
system: ABIL (ammonia-binding liquid inoculum), nitrifying microbial enrichment containing both AOA and AOB; assay: Nitrification inhibition assay on ABIL (ammonium consumption); type: cell-based; conditions: 10 µM compound; structural variants outside formula (I); read-out: Relative nitrification (%) by ABIL treated with 10 µM compound
The reply should be a number in %, with the unit left off.

# example entries with known answers
{"columns": ["Compound", "activity at 10 µM (%)"],
 "data": [
  ["Cc1nccc(Nc2ccc3[nH]ncc3c2)n1", 98],
  ["CC(=O)NC(CC(=O)Nc1cnc2c(cnn2C(C)C)c1)c1ccc(Cl)cc1 (centres unmarked)", 91],
  ["CC(CCc1ccco1)NC(=O)c1cnc2c(cnn2Cc2ccccc2)c1 (centres unmarked)", 100]
]}

Recorded activity at 10 µM of CCN(CC1CCOC1)C(=O)c1cc2cnn(C(C)C)c2nc1C (centres unmarked) , please. 98

Now the compound Cc1nc2c(c(C)nn2C)c(C)c1CCC(=O)O 97

* * *

tested on: ABIL (ammonia-binding liquid inoculum), nitrifying microbial enrichment containing both AOA and AOB; assay: Nitrification inhibition assay on ABIL (ammonium consumption); assay type: cell-based; settings: 24 h, 10 µM compound; 24 h; 0% = as strong as 100 µM PTIO, 100% = no inhibition; read-out: ABIL - relative nitrification (%) at 10 µM
# activity at 10 µM binned as bin A: < 20%; bin B: ≥ 20% and < 60%; bin C: ≥ 60%

{"columns": ["Input Smiles", "Classification"],
 "data": [
  ["Cc1nn(C)c2nc(C3CC3)cc(C(=O)NCCC(C)C)c12", "bin C"]
]}

Sort into band: Cc1nn(C(C)(C)C)c2nc(C3CC3)cc(C(=O)N(C)C)c12 bin B

Now the compound COCCNC(=O)c1cc(C2CC2)nc2c1cnn2C(C)C bin A

Now the compound CC(C)n1ncc2c(C(=O)NCCN(C)C)cc(C3CC3)nc21 bin C

Now the compound Cc1nn(C)c2nc(C(C)C)cc(C(=O)N(C)c3nc4ccccc4s3)c12 bin A

* * *

test system: ABIL (ammonia-binding liquid inoculum), nitrifying microbial enrichment containing both AOA and AOB; experiment: Nitrification inhibition assay on ABIL (ammonium consumption); assay type: cell-based; conditions: 10 µM compound; structural variants outside formula (I); read-out: Relative nitrification (%) by ABIL treated with 10 µM compound
Test Readout: activity at 10 µM

{"columns": ["Compound", "Test Result"],
 "data": [
  ["Clc1ccc2c(Nc3ccc4[nH]ncc4c3)ncnc2c1 [Example 99]", "90%"]
]}

Recorded activity at 10 µM of O=C(NC1=NCCS1)c1n[nH]c2ccccc12 [Example 111] , please. 98%

Now the compound CC(C)n1ncc2cc(NC(=O)Cc3ccc(F)cc3)cnc21 [Example 56] 100%

Now the compound O=C(NC1CCc2ccccc21)c1n[nH]c2ccccc12 (stereo not drawn) [Example 132] 100%

Now the compound CC(C)n1ncc2cc(NC(=O)C3(C)CC3(Cl)Cl)cnc21 (stereo not drawn) [Example 50] 100%

Now the compound COc1ccccc1CN(C)C(=O)c1cc2cnn(C(C)C)c2nc1C [Example 93] 100%

Now the compound CC(C)n1ncc2cc(C(=O)NCc3ccccc3S(=O)(=O)N3CCCCC3)cnc21 [Example 81] 100%

Now the compound CCCc1nnc(NCc2cccc3cn[nH]c23)o1 [Example 151] 100%

Now the compound Cc1nn(-c2ccc(F)cc2)c2nc3c(cc12)C(=O)CC(C)(C)C3 [Example 72] 100%

Now the compound CC(C)n1ncc2cc(NC(=O)N3CCN(S(=O)(=O)N4CCCCCC4)CC3)cnc21 [Example 83] 100%

Now the compound Cc1nc2c(cnn2C(C)C)cc1C(=O)NC(C)C1CC1 (stereo not drawn) [Example 31] 93%

Now the compound O=C(c1n[nH]c2ccccc12)N1CCc2ccc(F)cc21 [Example 141] 100%

Now the compound O=C(NCC1CCCO1)c1n[nH]c2ccc(Br)cc12 (stereo not drawn) [Example 142] 100%

Now the compound CCc1nnc(NC(=O)c2cnc3c(cnn3C(C)C)c2)s1 [Example 24] 91%

* * *

test system: ABIL (ammonia-binding liquid inoculum), nitrifying microbial enrichment containing both AOA and AOB; assay: Nitrification inhibition assay on ABIL (ammonium consumption); format: cell-based; settings: 10 µM compound; structural variants outside formula (I); read-out: Relative nitrification (%) by ABIL treated with 10 µM compound
Below, each entry is listed with its recorded activity at 10 µM.
The reply should be a number in %, with the unit left off.

{"columns": ["Compound", "Test Result"],
 "data": [
  ["COc1ccc(C(O)CNCc2cccc3cn[nH]c23)cc1 (centres unmarked)", 100],
  ["CSCC(=O)Nc1ccc2[nH]ncc2c1", 100],
  ["Cc1nc2c(c(C)nn2C)c(C)c1CCC(=O)Nc1ccccc1C(=O)O", 100]
]}

Recorded activity at 10 µM of Cc1ccc2[nH]nc(C(=O)N3CCS(=O)(=O)C(C)(C)C3)c2c1 , please. 93

Now the compound Fc1cccnc1N1CCC(NCc2cccc3cn[nH]c23)C1 (centres unmarked) 98

Now the compound O=C(Nc1cccc(/C=C/c2ccccn2)c1)c1n[nH]c2ccccc12 100

Now the compound C#CCOCCC(=O)Nc1n[nH]c2c(Cl)cccc12 100

* * *

Below, each entry is listed with its recorded N. viennensis - relative nitrification (%) at 25 µM.
tested on: Nitrososphaera viennensis; experiment: Nitrification inhibition assay on Nitrososphaera viennensis (nitrite, Griess); format: cell-based, Nitrososphaera viennensis EN76T; conditions: 25 µM compound; 0% = as strong as 100 µM PTIO, 100% = no inhibition
The reply should be a number in %, with the unit left off.

# example entries with known answers
{"columns": ["Molecule", "Target System", "Test Result"],
 "data": [
  ["CC(C)c1cc(C(=O)N2CCSCC2)c2cnn(C(C)C)c2n1", "Nitrososphaera viennensis", 0],
  ["Cc1nn(C)c2nc(-c3ccco3)cc(C(=O)N(C)CCOc3cccc(Cl)c3)c12", "Nitrososphaera viennensis", 5],
  ["Cc1nn(C)c2nc(C(C)C)cc(C(=O)N(C)c3nc4ccccc4s3)c12", "Nitrososphaera viennensis", 0],
  ["CC(C)n1ncc2c(C(=O)Nc3nc4c(s3)CCC4)cc(C3CC3)nc21", "Nitrososphaera viennensis", 2]
]}

Recorded N. viennensis - relative nitrification (%) at 25 µM of COCCNC(=O)c1cc(-c2ccc(C)cc2)nc2c1cnn2C(C)C , please. 0

Now the molecule CCn1ncc2c(C(=O)NCC3CCCO3)cc(-c3ccccc3)nc21 (stereo not drawn) 54

* * *

Below, each entry is listed with its recorded activity at 10 µM.
system: ABIL (ammonia-binding liquid inoculum), nitrifying microbial enrichment containing both AOA and AOB; assay: Nitrification inhibition assay on ABIL (ammonium consumption); type: cell-based; settings: 10 µM compound; structural variants outside formula (I); read-out: Relative nitrification (%) by ABIL treated with 10 µM compound
The reply should be a number in %, with the unit left off.

# example entries with known answers
{"columns": ["Compound", "activity at 10 µM (%)"],
 "data": [
  ["Cc1n[nH]c2ncc(CNCc3ccc4c(c3)OCO4)cc12", 100],
  ["O=S1(=O)CCCN1c1cccc(NCc2cccc3cn[nH]c23)c1", 94],
  ["COc1ccc(S(=O)(=O)Nc2cccc3cn[nH]c23)c(NS(=O)(=O)C(F)F)c1", 96],
  ["CC(CNC(=O)c1cccc2[nH]ncc12)CC1(C)OCCO1 (stereo not drawn)", 97],
  ["CCCC(O)CNCc1cccc2cn[nH]c12 (stereo not drawn)", 100],
  ["Cc1nc2cc(NC(=O)c3cnc4c(cnn4C(C)C)c3)ccc2o1", 99]
]}

Here is the next item to consider.
Recorded activity at 10 µM of O=C(O)CC1CSCCN1C(=O)c1cccc2cn[nH]c12 (stereo not drawn) , please. 98

* * *

test system: ABIL (ammonia-binding liquid inoculum), nitrifying microbial enrichment containing both AOA and AOB; assay: Nitrification inhibition assay on ABIL (ammonium consumption); format: cell-based; conditions: 10 µM compound; structural variants outside formula (I); read-out: Relative nitrification (%) by ABIL treated with 10 µM compound
Test Readout: activity at 10 µM
Reply with a number, then the unit it belongs to.

{"columns": ["Compound", "Test Result"],
 "data": [
  ["Cc1nn(C)c2ncc(NC(=O)CCC3CCCO3)cc12 (stereo not drawn)", "100%"],
  ["O=C(O)CC1(CC(=O)Nc2ccc3cn[nH]c3c2)CCCCC1", "100%"]
]}

Recorded activity at 10 µM of Cc1nc2c(cnn2C(C)C)c(C)c1CCC(=O)N1CCSCC1 , please. 92%

Now the compound Cc1nc2c(c(C)nn2C)c(C)c1CCC(=O)NC(C)C1CCCO1 (stereo not drawn) 100%

Now the compound CC(C)n1ncc2cc(CNc3ccc4[nH]ncc4c3)ccc21 92%

Now the compound O=C(c1n[nH]c2ccccc12)N1CCSCC1 100%

Now the compound CC(C)n1ncc2cc(NC(=O)CCC(=O)c3ccccc3)cnc21 100%

Now the compound O=C(Nc1cccc2cn[nH]c12)c1csc(-c2ccccc2)n1 100%

Now the compound O=C(Nc1ccc2[nH]ncc2c1)C1(c2ccc(F)cc2)CC1 100%
